run.description: amyloid nucleation score (Sup35N fusion, yeast selection) (log enrichment); library NNK2; higher = more nucleation; inactive = no reads after selection;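 also: zero at mode of non-aggregating sequences after 7 days selection at 30°C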
MET means recorded amyloid nucleation score is 2 or above; NOT MET means it is below 2.

Reference set, count: 10
> print(dat)
               substance  qualitative.label
 1  SFYLLCLSFMSLCWASRLVV                MET
 2             CMPPRLWMW            NOT MET
 3  TSRDWCLDVPWKSHYYEVKY            NOT MET
 4  LFARWTFDNFSLRVVLQTRI            NOT MET
 5                NSVFFY            NOT MET
 6  RANFSGTKLLVNTECLWLSV                MET
 7         YHFTLGCNSEGCR            NOT MET
 8       LCCGSLDIYWFVFFF            NOT MET
 9  IFVCNMFVSYNSGNSGWCSV                MET
10  SRHWLNDVIFLSHSTSGQHW            NOT MET

Now take the following substance into account.
Q: Evaluate FFKISQSTTTEQLVYSCYSS : amyloid nucleation score at minimum 2?
Result: MET
